Listing: ED50 of selected molecules
# Tested on: dopamine (symptoms elicited with the dopamine agonist apomorphine)
# measurementProtocol: combined apomorphine (APO), tryptamine (TRY) and norepinephrine (NOR) test in rats: apomorphine (APO)
# Type: in vivo
# testSettings: Rattus norvegicus; combined test in rats; apomorphine; read-out: APO ED50
The response must be a number in mg/kg with no trailing unit.

Look over these answered cases.
molecule	targetOrSystem	endpointUnit	ED50
COCCOC1CCCn2c1nc(C)c(CCN1CCC(c3noc4cc(F)ccc34)CC1)c2=O (stereo not drawn) [Compound 11]	dopamine (symptoms elicited with the dopamine agonist apomorphine)	mg/kg	0.31
CCCCCCCCCCCCOC1CCCn2c1nc(C)c(CCN1CCC(c3noc4cc(F)ccc34)CC1)c2=O (stereo not drawn) [Compound 9]	dopamine (symptoms elicited with the dopamine agonist apomorphine)	mg/kg	10
CCOCOC1CCCn2c1nc(C)c(CCN1CCC(c3noc4cc(F)ccc34)CC1)c2=O (stereo not drawn) [Compound 8]	dopamine (symptoms elicited with the dopamine agonist apomorphine)	mg/kg	0.31
COC1CCCn2c1nc(C)c(CCN1CCC(c3noc4cc(F)ccc34)CC1)c2=O (racemic) [Compound 7]	dopamine (symptoms elicited with the dopamine agonist apomorphine)	mg/kg	0.02
COc1cccn2c(=O)c(CCN3CCC(c4noc5cc(F)ccc45)CC3)c(C)nc12 [Compound 1]	dopamine (symptoms elicited with the dopamine agonist apomorphine)	mg/kg	0.31

Task: Looking for the measured ED50 of CCCOC1CCCn2c1nc(C)c(CCN1CCC(c3noc4cc(F)ccc34)CC1)c2=O (stereo not drawn) [Compound 10] , can you help?
Result: 0.08

Task: Looking for the measured ED50 of C=CCOc1cccn2c(=O)c(CCN3CCC(c4noc5cc(F)ccc45)CC3)c(C)nc12 [Compound 4] , can you help?
Result: 0.31
